Measured solubility (mole fraction) by item
- RECORDED_CONDITIONS: in water, 318.15 K
Response field accepts a number only; no unit should be typed.

- COMPOUND: "CCn1cc(C(=O)O)c(=O)c2cnc(N3CCNCC3)nc21"
  solubility (mole fraction): "3.4e-05"
- COMPOUND: "CCn1cc(C(=O)O)c(=O)c2cc(F)c(N3CCNCC3)cc21"
  solubility (mole fraction): "3.93e-05"

Field: next compound
Fill in solubility (mole fraction) for record CCn1cc(C(=O)O)c(=O)c2cc(F)c(N3CCNC(C)C3)c(F)c21 (stereo not drawn)
6.54e-05

###

- RECORDED_CONDITIONS: in water, 293.15 K
MEASURED_ENDPOINT: solubility (mole fraction)

Reference set (2 entries):
- MOLECULE: "CCn1cc(C(=O)O)c(=O)c2cc(F)c(N3CCNCC3)cc21"
  solubility (mole fraction): "2.02e-05"
- MOLECULE: "CCn1cc(C(=O)O)c(=O)c2cnc(N3CCNCC3)nc21"
  solubility (mole fraction): "1.85e-05"

Fill in solubility (mole fraction) for record CCn1cc(C(=O)O)c(=O)c2cc(F)c(N3CCNC(C)C3)c(F)c21 (stereo not drawn)
3.48e-05
